# Relative KD (KD of variant / KD of VH0/VK0) per record follows
test system: T1, recombinant human PD-L2 (human PD-L2 antigen) (human, UniProt Q9BQ51 20-219, limits assumed)
T1 construct: The Biacore analyte and the ELISA antigen are only called human PD-L2 antigen / recombinant hPD-L2; Whole entry named; also called hPD-L2; recombinant hPD-L2
T1 sequence (looked up): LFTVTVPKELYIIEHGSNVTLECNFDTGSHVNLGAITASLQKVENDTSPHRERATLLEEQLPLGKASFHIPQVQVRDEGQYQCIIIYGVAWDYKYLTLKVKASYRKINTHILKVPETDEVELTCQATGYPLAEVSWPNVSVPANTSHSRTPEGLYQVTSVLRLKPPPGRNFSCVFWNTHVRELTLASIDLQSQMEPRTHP
assay remarks: SPR (Biacore 8K), single cycle kinetics, antibody in culture supernatant, human PD-L2 antigen
measure: Relative KD (KD of variant / KD of VH0/VK0)

1) VH1/VK2 (antibody, V domains shown, hIgG1 backbone, CHO expressed) VH: QVQLVQSGAELKKPGSSVKVSCKASGYAFSNYFIEWVKQPPGKGLEWIGLNIPGSGGSNYAEKFKGRATITADKSTSTAYMELSSLTSEDSAVYFCARRRLPPDWYFDVWGQGTTVTVSS VL: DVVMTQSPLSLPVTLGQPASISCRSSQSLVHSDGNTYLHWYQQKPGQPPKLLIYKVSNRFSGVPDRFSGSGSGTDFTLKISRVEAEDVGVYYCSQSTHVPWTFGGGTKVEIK: 1.36
2) VH3/VK1 (antibody, V domains shown, hIgG1 backbone, CHO expressed) VH: QVQLVQSGAEVKKPGSSVKVSCKASGYAFSNYFIEWVKQPPGKGLEWIGLNIPGSGGSNYAEKFKGRVTITADKSTSTAYMELSSLRSEDSAVYFCARRRLPPDWYFDVWGQGTTVTVSS VL: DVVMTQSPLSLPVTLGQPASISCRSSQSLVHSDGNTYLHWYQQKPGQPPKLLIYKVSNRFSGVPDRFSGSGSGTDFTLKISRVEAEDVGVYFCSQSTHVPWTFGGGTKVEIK: 1.69
3) VH8/VK3 (antibody, V domains shown, hIgG1 backbone, CHO expressed) VH: QVQLVQSGAEVKKPGSSVKVSCKASGYAFSNYFIEWVKQPPGKGLEWIGLNIPGSGGSNYAEKFKGRATITADKSTSTAYMELSSLRSEDTAVYYCARRRLPPDWYFDVWGQGTTVTVSS VL: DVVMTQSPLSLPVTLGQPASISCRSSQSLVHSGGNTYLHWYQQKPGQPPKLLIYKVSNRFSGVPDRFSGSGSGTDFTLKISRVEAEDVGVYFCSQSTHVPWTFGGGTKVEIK: 6.82
